Documented IC50 Group, MBP C125 assay (Group II: =1<10 µM) across a set of binders
tested.on: β-secretase (enzyme preparation not stated for the inhibitor assays) (human) (UniProt P56817)
Sequence (P56817 46-501 limits assumed): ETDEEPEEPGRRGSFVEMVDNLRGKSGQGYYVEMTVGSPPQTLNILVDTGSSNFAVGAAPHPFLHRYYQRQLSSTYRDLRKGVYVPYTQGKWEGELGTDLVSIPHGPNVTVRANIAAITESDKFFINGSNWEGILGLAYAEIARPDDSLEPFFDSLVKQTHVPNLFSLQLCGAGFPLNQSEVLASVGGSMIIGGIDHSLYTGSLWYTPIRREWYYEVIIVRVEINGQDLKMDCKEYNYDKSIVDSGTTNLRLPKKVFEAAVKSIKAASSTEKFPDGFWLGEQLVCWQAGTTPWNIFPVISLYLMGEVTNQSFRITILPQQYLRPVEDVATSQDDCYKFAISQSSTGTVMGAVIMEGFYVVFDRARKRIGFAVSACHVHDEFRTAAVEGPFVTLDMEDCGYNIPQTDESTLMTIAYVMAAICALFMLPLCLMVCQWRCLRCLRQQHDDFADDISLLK
protocol.text: cell-based or functional assay
Square brackets hold non-standard residues; d marks the D form. Ends that are not written are not given here. Sta = CC(C)C[C@H](N)[C@@H](O)CC(=O)O; Phg = N[C@H](C(=O)O)c1ccccc1; Abu = CC[C@H](N)C(=O)O

Reference set (2 entries):
Ac-VM[Sta][Phg]AEF [heptamer peptide 7D (Ac-Val-Met-Sta-Phg-Ala-Glu-Phe)] ... < 10 µM
H-VM[Sta]VEF [hexameric peptide 7R ((NH2)Val-Met-Sta-Val-Glu-Phe, P2′ deleted)] ... < 10 µM

Which value of IC50 Group, MBP C125 assay (Group II: =1<10 µM) has been reported for Ac-VM[Sta][Abu]AEF [heptamer peptide 7C (Ac-Val-Met-Sta-Abu-Ala-Glu-Phe)] in the records?
< 10 µM
